Entry source: the Human Domainome abundance scans (Beltran et al. 2025)

B1: CD2-associated protein, residues 271 to 331; numbered along this chain, Q9Y5K6 (parent)
chain: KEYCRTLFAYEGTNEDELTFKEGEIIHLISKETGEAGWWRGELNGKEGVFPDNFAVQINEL

- Variants of: B1
- Experiment Description: abundance fitness (aPCA) (normalised: wild type 0, dead -1); higher = more abundant; growth selection in yeast, the domain comes from the species named
- Reported Conditions: Homo sapiens
Measurement Name: abundance fitness
One number for each entry.

For orientation, consider the following solved cases.
Find the recorded abundance fitness belonging to "E47A" and report it. -0.248

Find the recorded abundance fitness belonging to "Y10S" and report it. -0.598

Find the recorded abundance fitness belonging to "R40C" and report it. -0.332

Find the recorded abundance fitness belonging to "K1A" and report it. -0.529

Find the recorded abundance fitness belonging to "D16G" and report it. 0.051

Give abundance fitness for each listed item.
1. Y3K
2. G37K
3. E47F
4. Q57S
5. L28M
6. L28G
7. G45P
8. K21F

1. -0.748
2. -0.403
3. -0.198
4. -0.182
5. -0.482
6. -0.778
7. -0.784
8. -0.42
